System: Cryptococcus neoformans
Experiment Description: Tested for in vitro antifungal activity against Cryptococcus neoformans TIMM1855
Assay type: functional
Measured MIC, listed per entry.

Compound: CO[C@H]1CN(CC=C(Cl)Cl)C[C@H](OCC23C[C@@H]4[C@H](C)CC[C@H]4C4(C=O)CC2C=C(C(C)C)C34C(=O)O)O[C@@H]1C (stereo partly drawn)
MIC: 8 µg/mL
--
Compound: CO[C@H]1CN(Cc2ccc(C(F)(F)F)cc2)C[C@H](OCC23C[C@@H]4[C@H](C)CC[C@H]4C4(C=O)CC2C=C(C(C)C)C34C(=O)O)O[C@@H]1C (stereo partly drawn)
MIC: > 32 µg/mL

Read the next record carefully.
Exam item: Give MIC; test system Cryptococcus neoformans; compound C=C(Br)CN1C[C@H](OCC23C[C@@H]4[C@H](C)CC[C@H]4C4(C=O)CC2C=C(C(C)C)C34C(=O)O)O[C@H](C)[C@@H](OC)C1 (stereo partly drawn)
Marked response: 0.25 µg/mL

----------
Tested on: Candida albicans
Experiment Description: Tested for in vitro antifungal activity against Candida albicans ATCC 24433 in the presence of horse serum (20%)
Assay type: functional
Measure Name: MIC
Give the figure together with its unit, number first.

Example molecules with recorded MIC:
Molecule: CO[C@H]1CN(CC2=CCCCC2)C[C@H](OCC23C[C@@H]4[C@H](C)CC[C@H]4C4(C=O)CC2C=C(C(C)C)C34C(=O)O)O[C@@H]1C (some centres not stated)
MIC: 8 µg/mL
--
Molecule: COc1cccc(CN2C[C@H](OCC34C[C@@H]5[C@H](C)CC[C@H]5C5(C=O)CC3C=C(C(C)C)C45C(=O)O)O[C@H](C)[C@@H](OC)C2)c1 (some centres not stated)
MIC: 2 µg/mL
--
Molecule: C=C(C)CN1C[C@H](OCC23C[C@@H]4[C@H](C)CC[C@H]4C4(C=O)CC2C=C(C(C)C)C34C(=O)O)O[C@H](C)[C@@H](OC)C1 (some centres not stated)
MIC: 0.5 µg/mL
--
Molecule: CO[C@H]1CN(Cc2ccccc2)C[C@H](OCC23C[C@@H]4[C@H](C)CC[C@H]4C4(C=O)CC2C=C(C(C)C)C34C(=O)O)O[C@@H]1C (some centres not stated)
MIC: 1 µg/mL
--
Molecule: COc1ccc(CN2C[C@H](OCC34C[C@@H]5[C@H](C)CC[C@H]5C5(C=O)CC3C=C(C(C)C)C45C(=O)O)O[C@H](C)[C@@H](OC)C2)cc1 (some centres not stated)
MIC: 1 µg/mL
--
Molecule: CO[C@H]1CN(Cc2ccc(C)cc2)C[C@H](OCC23C[C@@H]4[C@H](C)CC[C@H]4C4(C=O)CC2C=C(C(C)C)C34C(=O)O)O[C@@H]1C (some centres not stated)
MIC: 8 µg/mL

Exam item: Look up and state reported MIC for C=CCN1C[C@H](OCC23C[C@@H]4[C@H](C)CC[C@H]4C4(C=O)CC2C=C(C(C)C)C34C(=O)O)O[C@H](C)[C@@H](OC)C1 (some centres not stated)
Marked response: 0.25 µg/mL

Exam item: Annotate the molecule CO[C@H]1CN(CC=C(C)C)C[C@H](OCC23C[C@@H]4[C@H](C)CC[C@H]4C4(C=O)CC2C=C(C(C)C)C34C(=O)O)O[C@@H]1C (some centres not stated) with its measured MIC.
Marked response: 2 µg/mL

Exam item: Specify measured MIC for CC(C)C1=CC2CC3(C=O)[C@@H]4CC[C@@H](C)[C@H]4CC2(CSC2CCCCC2)C13C(=O)O (some centres not stated) .
Marked response: 8 µg/mL

----------
Tested on: Cryptococcus neoformans
Experiment Description: Tested for in vitro antifungal activity against Cryptococcus neoformans TIMM1855
Assay type: functional
Each record here notes measured MIC.

Before answering, review these 3 worked examples.
Compound: C=CCN1C[C@H](OCC23C[C@@H]4[C@H](C)CC[C@H]4C4(C=O)CC2C=C(C(C)C)C34C(=O)O)O[C@H](C)[C@@H](OC)C1 (some centres undefined)
Observed Value: > 16 µg/mL

Compound: CO[C@H]1CN(CC=C(C)C)C[C@H](OCC23C[C@@H]4[C@H](C)CC[C@H]4C4(C=O)CC2C=C(C(C)C)C34C(=O)O)O[C@@H]1C (some centres undefined)
Observed Value: > 16 µg/mL

Compound: C=CCCN1C[C@H](OCC23C[C@@H]4[C@H](C)CC[C@H]4C4(C=O)CC2C=C(C(C)C)C34C(=O)O)O[C@H](C)[C@@H](OC)C1 (some centres undefined)
Observed Value: > 16 µg/mL

Okay, now this compound:
Exam item: Determine its reported MIC: CC(C)C1=CC2CC3(C=O)[C@@H]4CC[C@@H](C)[C@H]4CC2(CSC2CCCCC2)C13C(=O)O (some centres undefined)
Marked response: > 8 µg/mL

----------
System: Candida albicans
Experiment Description: Tested for in vitro antifungal activity against Candida albicans ATCC 24433 in the presence of horse serum (20%)
Format: functional
MIC values by entry

Exam item: Report MIC under test system Candida albicans for CO[C@H]1CN(Cc2ccc(C#N)cc2)C[C@H](OCC23C[C@@H]4[C@H](C)CC[C@H]4C4(C=O)CC2C=C(C(C)C)C34C(=O)O)O[C@@H]1C (stereo partly drawn) .
Marked response: 2 µg/mL

Exam item: Provide MIC, recorded with Candida albicans, of C=C(Cl)CN1C[C@H](OCC23C[C@@H]4[C@H](C)CC[C@H]4C4(C=O)CC2C=C(C(C)C)C34C(=O)O)O[C@H](C)[C@@H](OC)C1 (stereo partly drawn)
Marked response: 0.5 µg/mL

Exam item: Please report MIC with Candida albicans for item CO[C@H]1CN(Cc2ccc(C(F)(F)F)cc2)C[C@H](OCC23C[C@@H]4[C@H](C)CC[C@H]4C4(C=O)CC2C=C(C(C)C)C34C(=O)O)O[C@@H]1C (stereo partly drawn) .
Marked response: 32 µg/mL
